assay: Cabozantinib plasma PK monitoring; assay type: in vivo, human; details: human, plasma, oral, Mean AUC (SD), whole population; from population PK model
readout_name: AUC (ng·h/mL)
Quick note: give the figure in ng·h/mL, leave out the unit.

AUC lookup needed for COc1cc2nccc(Oc3ccc(NC(=O)C4(C(=O)Nc5ccc(F)cc5)CC4)cc3)c2cc1OC [cabozantinib] , thanks.
20900

---

format: in vivo, human; conditions: human, plasma, oral, Median AUC (IQR), patients with relevant toxicity
readout_name: AUC

Name the recorded AUC for COc1cc2nccc(Oc3ccc(NC(=O)C4(C(=O)Nc5ccc(F)cc5)CC4)cc3)c2cc1OC [cabozantinib] .
21000 ng·h/mL
